System: MALME-3M melanoma
Assay: NCI tumour cell line growth inhibition, 48 h
Documented TGI across a set of molecules
MEASURE NAME: TGI (µM)

| ITEM SMILES | ASSAYED TARGET | MEASURE NAME | BOUND SIGN | MEASURED |
| --- | --- | --- | --- | --- |
| CC[C@@]1(O)C(=O)OCc2c1cc1n(c2=O)Cc2c-1nc1cc(F)c(C)c3c1c2[C@@H](N)CC3 | MALME-3M melanoma | TGI | = | 0.281 |
| COC(=O)c1cc(/C=C/c2ccc(S(N)(=O)=O)cc2)ccc1O | MALME-3M melanoma | TGI | > | 100 |
| COc1ccc(N=C2C(=S)N(c3ccc(OC)cc3)/C(=N/S(=O)(=O)c3ccccc3)N2c2ccccc2)cc1 | MALME-3M melanoma | TGI | = | 36.2 |
| CCOC(=O)/C(=C/c1cccc(C#N)c1)N(CC)CC | MALME-3M melanoma | TGI | > | 100 |
| [F][Sn]([F])([c]1ccccc1)[c]1ccccc1 | MALME-3M melanoma | TGI | = | 3.33 |

###

GI50 values, listed per item
System: HCT-15 colon
Experiment: NCI tumour cell line growth inhibition, 48 h
MEASURE NAME: GI50

| COMPOUND | MEASURED |
| --- | --- |
| C[C@H]1CCC/C=C/[C@@H]2C[C@H](O)C[C@H]2[C@H](O)[C@@H](SCC(O)CO)CC(=O)O1 (stereo partly drawn) | 18900 nM |
| O=C(N/N=C/c1c(Cl)cccc1Cl)c1ccc(C(F)(F)F)nc1Nc1cccc(C(F)(F)F)c1 | 437 nM |
| COc1ccc(/C=C(/c2ccccc2)[N+](=O)[O-])cc1 | 446 nM |

###

System: HT29 colon
Test: NCI tumour cell line growth inhibition, 48 h; in the data active means GI50 below about 0.43 µM; inactive means the rest
Labels: t for active, f for inactive

| COMPOUND | CLASS NAME |
| --- | --- |
| COc1ccc2c(c1)C(C)Cc1c(ncnc1-n1cnc3cc(C)ccc31)N2C (stereo unspecified) | t |
| N#Cc1ccc(OC(=O)Nc2ccc(Cl)c(Cl)c2)cc1 | f |
| S=C1SC2=Nc3ccccc3CN2C2=NCCN12 | f |
| O=C(CSC(c1ccccc1)c1ccccc1)N/N=C/c1ccco1 | f |
| O=C(NO)c1ccc(CN(c2cnccn2)c2cnccn2)cc1 | f |
| O=C(Nc1ccc(Cl)c(Cl)c1)Nc1ccccc1O | f |

###

Tested on: SK-MEL-2 melanoma
Experiment: NCI tumour cell line growth inhibition, 48 h
Where a SMILES comes first, the peptide text is derived from it. The star is where a group is joined. Bn = c1ccc(C*)cc1
MEASURE NAME: TGI (µM)

| COMPOUND | READOUT UNITS | BOUND SIGN | MEASURED |
| --- | --- | --- | --- |
| O=C1CCCc2cc3c(cc21)CC1(C3)Cc2ccc3c(c2C1)C(=O)CCC3 (stereo not given) | µM | = | 88.9 |
| Cc1cn2c(C)csc2c1P(=O)(OC(C)C)OC(C)C | µM | > | 100 |
| OC1(c2ccc(Cl)cc2)c2ccc(CN3CCCC3)cc2C2=NCCN21 (stereo not given) | µM | = | 34.2 |
| O=C(O)c1ccc2c(c1)CC1(C2)Cc2cc3c(cc2C1=O)CCC3 (stereo not given) | µM | > | 100 |
| COC(=O)C(CC(C)C)NC(=O)C(N)Cc1ccc(OCc2ccccc2)cc1 (stereo not given) (H-Tyr(Bn)-Leu-OMe; configuration not given here) | µM | > | 10 |
| COC(=O)c1cc(/C=C/c2ccc(S(N)(=O)=O)cc2)ccc1O | µM | > | 100 |
| O=C1CCc2ccc3c(c21)CC1(Cc2ccccc2C1)C3 | µM | = | 38.7 |
| COC(=O)C1OC(O[C@H]2CC[C@]3(C)[C@H]4CC=C5[C@@H]6CC(C)(C)CC[C@]6(C(=O)OC6OCC(O)C(O)C6OC6OC(C)C(OC7OCC(OC8OCC(O)C(O)C8O)C(O)C7O)C(O)C6O)[C@H](O)C[C@@]5(C)[C@]4(C)CC[C@H]3C2(C)C)C(O)C(O)C1O (stereo not given in full) | µM | = | 10.1 |
| COc1ccc2c(c1)C(C)Cc1c(ncnc1-n1cnc3cc(C)ccc31)N2C (stereo not given) | µM | = | 13.4 |
| COc1ccc(Cc2cnc(NC(=O)c3ccc4c(c3)OCCO4)s2)cc1 | µM | > | 78.4 |
| OCCNCCOc1ccc(/C(=C(/Cl)c2ccccc2)c2ccccc2)cc1 | µM | = | 26.4 |
| C[C@]1(S(=O)(=O)c2ccccc2)C[C@H]2N(Cc3ccccc3)[C@@H]1CCC21OCCO1 | µM | > | 100 |
| CC1=C(C(=O)NNS(=O)(=O)c2ccc(C)cc2)CC(C(=O)NNS(=O)(=O)c2ccc(C)cc2)=C(C)N1 | µM | > | 100 |
| Cc1ncc([N+](=O)[O-])n1CCNS(=O)(=O)CCCn1ncnc1[N+](=O)[O-] | µM | > | 100 |
| COC(=O)[C@H](C)NC(=O)[C@H](CSC)N1C(=O)N[C@@H](C(C)C)C1=O | µM | > | 100 |
| O=[N+]([O-])c1ccc(CSCc2ccc(Cl)cc2)cc1 | µM | > | 100 |
| Cc1c2ccncc2c(C)c2c1[nH]c1ccccc12 | µM | = | 6.79 |
| NS(=O)(=O)c1ccc(NC(NC(=O)C(C(F)(F)F)C(F)(F)F)(C(F)(F)F)C(F)(F)F)cc1 | µM | > | 100 |
| COCOc1ccc(C2(O)Oc3cc(OCOC)ccc3C2C)c(O)c1 (stereo not given) | µM | = | 32.7 |
| Cc1cc2c(nn1)-c1ccccc1C2=O | µM | > | 10 |
| Cc1cc(/N=C/c2ccc(C#N)cc2)n(-c2ccccc2)n1 | µM | > | 100 |
| C[C@]12CC[C@@H]3c4ccc(O)c([N+](=O)[O-])c4CC[C@H]3[C@@H]1CC[C@@H]2NS(=O)(=O)c1cccc(Br)c1 | µM | = | 5.34 |
| CCN(CC)CCNC(=O)c1ccc(C)c(OCc2ccccc2)c1[N+](=O)[O-] | µM | = | 41 |
| O=C(CNCc1ccccc1)Oc1c(Cl)c(Cl)c(Cl)c(Cl)c1Cl | µM | = | 92 |
| C=C1C(=O)OC2/C=C(/C)C3(O)OC(C)(CC(OC(=O)C(C)C)C12)CC3OC(C)=O (stereo not given) | µM | = | 49.7 |
| CCCCCCCCCCN1CCC(N2CCCCC2)CC1 | µM | = | 6.29 |
| O=C(O)C12CC3(C(=O)O)CC(C(=O)O)(CC(C(=O)O)(C1)C3=O)C2=O | µM | > | 100 |
| CCOC(=O)Cn1c(=O)n(C)c(=O)c2c1ncn2Cc1ccccc1 | µM | > | 100 |
| COc1cc(C2C(C(=O)Nc3cc(F)c(F)cc3F)=C(C)NC(C)=C2C(=O)Nc2cc(F)c(F)cc2F)ccc1O | µM | = | 79.1 |
| Cc1cn([C@H]2C[C@](C)(CO)N(C)O2)c(=O)[nH]c1=O | µM | > | 100 |
| O=C(O)CN(c1ccccc1)S(=O)(=O)c1ccc([N+](=O)[O-])cc1 | µM | > | 100 |
| NC(=S)N/N=C/c1cc(-c2cccc(N)c2)ccn1 | µM | = | 43.8 |
| Cc1nn(C(=O)c2ccc(Cl)cc2)c2c1C(c1ccc(O)cc1)SC(N)=N2 (stereo not given) | µM | > | 10 |
| CC(C)CCn1nc(N)c2nc3ccccc3nc21 | µM | > | 100 |
| CC(C(=O)n1c2ccccc2c2ccccc21)N(c1ccccc1)c1ccccc1 (stereo not given) | µM | = | 28.4 |
| Cc1ccc(S(=O)(=O)NC(=O)NNc2ccc(F)cc2)cc1 | µM | > | 100 |
| N#CCCN(CCC#N)c1ccc(/C=C2\SC(=S)NC2=O)cc1Br | µM | > | 100 |
| COC(=O)[C@H](Cc1ccccc1)NC(=O)c1ccc(CNC(=O)/C=C/c2cccc(Oc3ccccc3)c2)cc1 | µM | = | 27.7 |
| C/C(CCn1[nH]c(=O)ccc1=O)=N\OCCCc1ccccc1 | µM | > | 100 |
| COc1ccc(N=C2C(=S)N(c3ccc(OC)cc3)/C(=N/S(=O)(=O)c3ccccc3)N2c2ccccc2)cc1 | µM | = | 25.5 |

###

Tested on: T-47D breast
Assay: NCI tumour cell line growth inhibition, 48 h
MEASURE NAME: TGI

| MOLECULE | MEASURED |
| --- | --- |
| Cc1cc(/N=C/c2ccc(C#N)cc2)n(-c2ccccc2)n1 | > 100 µM |
| CCCOC(=O)NC(C)C(=O)NC(CCC(=O)NC(CCCC(N)C(=O)O)C(=O)NC(C)C(=O)O)C(=O)O (stereo not drawn) | 41.7 µM |
| N#Cc1c(C#N)c(-c2ccccc2)n(-c2ccccc2)c1N | 56.1 µM |
| C[C@H]1CCC/C=C/[C@@H]2C[C@H](O)C[C@H]2[C@H](O)[C@@H](SCC(O)CO)CC(=O)O1 (stereo partly drawn) | > 100 µM |
| C=C1C(=O)OC2/C=C(/C)C3(O)OC(C)(CC(OC(=O)C(C)C)C12)CC3OC(C)=O (stereo not drawn) | > 100 µM |
| C/C(=N\NC(=S)N1CC2CCC(CC2)C1)c1ccccn1 | 1.39 µM |
| Nc1nc(Nc2ccc(Cl)cc2)sc1C(=O)c1cccs1 | > 100 µM |
| CC(C)(C)c1ccc(OCC(=O)O)c(Cl)c1 | > 100 µM |
| Cc1cc(C)n(-c2nnc3n2N=C(c2ccc(-c4ccccc4)cc2)CS3)n1 | > 100 µM |
| N#CCCN(CCC#N)c1ccc(/C=C2\SC(=S)NC2=O)cc1Br | > 100 µM |
| c1ccc(C2=Nn3c(CCCCCCCCc4nnc5n4N=C(c4ccccc4)CS5)nnc3SC2)cc1 | > 100 µM |
| O=C1CC(Sc2nc3ccc(I)cc3c(=O)n2Cc2ccccc2)C(=O)NN1 (stereo not drawn) | 34.3 µM |
| CC1=C[C@@H](C)C[C@]2(C)CC[C@H](O2)[C@]23CC[C@](C(=O)O)(C[C@H](O2)[C@@H]2O[C@@](C)(CC2=O)[C@@H](O)[C@H]2CC[C@@]4(CCC[C@@H](O4)[C@H](C)C(=O)O[C@H]4C[C@H]([C@]5(O)OCC[C@H](C)[C@@H]5O)O[C@H]4C=C1)O2)O3 | > 10 µM |
| O=C(O)CSC(NC(=O)C(C(F)(F)F)C(F)(F)F)(C(F)(F)F)C(F)(F)F | > 100 µM |
| NC(=S)N/N=C/c1cc(-c2cccc(N)c2)ccn1 | > 100 µM |
| O=C1c2cccc(NCCNCCO)c2C(=O)c2cccc(NCCNCCO)c21 | 4.26 µM |
| CO/N=C(/C)c1cccc(Nc2cc(-c3ccccc3)nc3ccc(OC)cc23)c1 | > 100 µM |
| O=C(c1ccccc1)N1C(=S)N=C(Nc2ccccc2)C1=Nc1ccccc1 | > 100 µM |
| CCOC(=O)C1CN(C2CC2)CCC1=O (stereo not drawn) | > 100 µM |
| CCCCCCCCCCN1CCC(N2CCCCC2)CC1 | 3.58 µM |
| COC(=O)[C@H](C)NC(=O)[C@H](CSC)N1C(=O)N[C@@H](C(C)C)C1=O | > 100 µM |
| Nc1ccc2[nH]cc(CCC(=O)O)c2c1 | > 100 µM |
| CC(C)C1=C2CCC3(C)C(CCC4C5C6OCC5(CCC6(C)C)CCC43C)C2(C)CC1 (stereo not drawn) | 63 µM |
| COc1cc2c(cc1OC)C13CC[N+]4(C)CC5=CCOC6CC(=O)N2C1C6C5CC34[O-] (stereo not drawn) | > 100 µM |
| S=C1CC(c2ccccc2)Sc2ccc(Cl)cc2N1 (stereo not drawn) | > 100 µM |
| COc1ccc(-c2csc(NC(=O)CSc3nc(C)c(-c4ccccc4)n3Nc3ccccc3)n2)cc1 | 7.49 µM |
| O=C(O)C12CC3(C(=O)O)CC(C(=O)O)(CC(C(=O)O)(C1)C3=O)C2=O | > 100 µM |
| CCOC(=O)[C@@H]1ON2O[C@@H](OC3CCCC3(c3ccccc3)c3ccccc3)C[C@H]3OC(=O)[C@@H]1C32 (stereo partly drawn) | 69.1 µM |
| O=C(O)c1ccc2c(c1)CC1(C2)Cc2cc3c(cc2C1=O)CCC3 (stereo not drawn) | > 100 µM |
| COc1cc([C@@H]2c3cc4c(cc3[C@@H](c3c(O)cc(O)c5c3O[C@H](c3ccc(O)c(O)c3)[C@@H](O)C5)[C@H]3COC(=O)[C@H]23)OCO4)cc(OC)c1O | > 100 µM |
| OCC(O)C(O)C(O)/C=N/Nc1nc(O)c(/C=C2\C=Nc3ccccc32)[nH]1 (stereo not drawn) | > 100 µM |
| COc1ccc(/C=N/N2C(=O)c3c(N)c(C#N)c(-c4ccccc4)c(-c4ccccc4)c3C2=O)cc1 | > 100 µM |
| Cc1c2ccncc2c(C)c2c1[nH]c1ccccc12 | 0.509 µM |
